Reference source for all entries: patent US20250195483A1

Readings of pIC50 for the listed compounds
# system: APOL1 (Homo sapiens, UniProt O14791)
# test.description: MultiTox-Fluor Multiplex Cytotoxicity Assay, tet-inducible APOL1 T-REx-HEK293 cells (G0, G1 or G2 clone not specified for Table 20)
# condition.parameters: tet-induced, 24 hours with compound, ratio of dead to live cells, read-out: IP50 (i.e., IC50 for cell proliferation)
pIC50: −log10 of the molar value.
quantity: pIC50

[[record]]
compound = "C[C@H]1C[C@@]2(CCN1Cc1cn(CCCn3ccc(=O)[nH]c3=O)nn1)OCCc1ccc(Cl)cc12"
system = "APOL1 (Homo sapiens, UniProt O14791)"
value_observed = "≥ 7.30"

[[record]]
compound = "C[C@H]1C[C@@]2(CCN1Cc1cn[nH]c1)OCCc1ccc(Cl)cc12"
system = "APOL1 (Homo sapiens, UniProt O14791)"
value_observed = "≥ 7.30"

[[record]]
compound = "CN1C(=O)C2(CCN(Cc3cnn(CCS(C)(=O)=O)c3)CC2)c2cc(OC(F)F)ccc21"
system = "APOL1 (Homo sapiens, UniProt O14791)"
value_observed = "≤ 6.30"

[[record]]
compound = "NC(=O)c1cccc(CN2CCC3(CC2)OC(C(N)=O)c2ccc(Cl)cc23)c1 (stereo not shown)"
system = "APOL1 (Homo sapiens, UniProt O14791)"
value_observed = "≤ 6.30"

